Source of measurements: patent US20200102347A1

System: T1, NativeRPtag(large)_with_Tags_and_Cys (Thermoanaerobacter tengcongensis)
T1 construct: Unlabeled in anisotropy assays; coupled through the engineered N-terminal Cys to SulfoLink agarose or maleimide plates in column, pull-down and ELISA assays
T1 chain: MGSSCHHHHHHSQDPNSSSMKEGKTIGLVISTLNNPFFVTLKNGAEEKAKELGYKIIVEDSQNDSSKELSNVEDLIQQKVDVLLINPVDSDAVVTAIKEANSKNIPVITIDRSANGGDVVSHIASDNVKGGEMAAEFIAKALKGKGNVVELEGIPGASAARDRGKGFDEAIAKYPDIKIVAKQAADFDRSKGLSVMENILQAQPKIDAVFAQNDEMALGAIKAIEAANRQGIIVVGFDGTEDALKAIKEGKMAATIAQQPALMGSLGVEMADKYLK
Assay Remarks: fluorescence anisotropy; No Additive; No Additive; 100 mM Tris pH 8.0, 0.005% Tween 20 (Table 3)
No end group written: not given here. *: point of attachment. RhodamineB = CCN(CC)c1ccc2c(-c3ccccc3C(=O)*)c3ccc(=[N+](CC)CC)cc-3oc2c1
Value Kind: Kd (nM)
Dear colleague, please return just the value in nM, with no unit written.

Sample RhodamineB-KIANFIPAELKLITKANVQ (also: also used unlabeled as competitor, Rhodamine labeled in the Kd assays; also called RPtag(small) (tight)) [RPtag(small) Nd2, p5a, e18a] — what was its Kd?
0.037
